// data source = patent US5159081A

molecular target: opioid receptor (Mus musculus, UniProt P42866); construct: Five CF-1 male mice (Charles River, Portage, MI); from tissue; host or cells: living CF-1 male mice (whole animal, endogenous receptor); assay: in vivo; design: species or system CF-1 male mice; conditions: sc; mouse writhing test; […]; s.c. 20 min before acetic acid; read-out: AD50 (the source's name)
Sequence (P42866 whole entry): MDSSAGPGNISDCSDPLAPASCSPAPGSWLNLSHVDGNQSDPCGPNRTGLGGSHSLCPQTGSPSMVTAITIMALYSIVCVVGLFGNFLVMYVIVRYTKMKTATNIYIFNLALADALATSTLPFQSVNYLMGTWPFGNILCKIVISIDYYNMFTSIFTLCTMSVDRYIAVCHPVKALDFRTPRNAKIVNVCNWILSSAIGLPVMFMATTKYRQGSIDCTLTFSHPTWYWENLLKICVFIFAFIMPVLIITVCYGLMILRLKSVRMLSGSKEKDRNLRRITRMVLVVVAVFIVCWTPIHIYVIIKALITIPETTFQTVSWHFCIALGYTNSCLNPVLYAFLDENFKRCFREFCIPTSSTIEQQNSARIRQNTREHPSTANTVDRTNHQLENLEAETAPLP
Structures can show the parent of a compound that is named as a salt.
# ED50 annotations
# value in mg/kg; strip the unit string

compound: CCOC(=O)CCC(=O)NC(CCN1CC[C@@](C)(c2cccc(O)c2)[C@@H](C)C1)CC(C)C (some centres unmarked) [Example 2B]
ED50 / mg/kg: 10.2
--
compound: CCOC(=O)CCCC(=O)NC(CCN1CC[C@@](C)(c2cccc(O)c2)[C@@H](C)C1)CC(C)C (stereo in doubt) [Example 3B, monohydrochloride]
ED50 / mg/kg: 15.5
--
compound: CC(C)COC(=O)CCC(=O)N(CCN1CC[C@@](C)(c2cccc(O)c2)[C@@H](C)C1)C1CCCCC1 (relative stereo)
ED50 / mg/kg: 5.5
--
compound: C[C@H]1CN(CC(Cc2ccccc2)NC(=O)CCC(=O)O)CC[C@@]1(C)c1cccc(O)c1 (some centres unmarked)
ED50 / mg/kg: 21

Form: compound = CCOC(=O)CCCC(=O)N(CCCN1CC[C@@](C)(c2cccc(O)c2)[C@@H](C)C1)C1CCCCC1 (relative stereo) [Example 33, monohydrochloride] ; ED50 = 3.67

Briefly, ED50 measured for `C[C@H]1CN(C[C@H](CC2CCCCC2)NC(=O)CCCC(=O)OCC(=O)N(C)C)CC[C@@]1(C)c1cccc(O)c1` : 13.5

Notebook: `COC(=O)CCCC(=O)N[C@@H](CC1CCCCC1)CN1CC[C@@](C)(c2cccc(O)c2)[C@@H](C)C1` , ED50 read as 20

Value of measured ED50 for the entry `C[C@H]1CN(C[C@@H](Cc2ccccc2)NC(=O)CC(=O)O)CC[C@@]1(C)c1cccc(O)c1` : 12.4

Briefly, ED50 measured for CCOC(=O)CCC(=O)NC(CCN1CC[C@@](C)(c2cccc(O)c2)[C@@H](C)C1)CC(C)C (single isomer, unassigned) [Example 2A] : 8.4

Memo: `COC(=O)CCCC(=O)N[C@@H](CC1CCCCC1)CN1CC[C@](C)(c2cccc(O)c2)[C@H](C)C1` , reported ED50: 9.9

For this compound ( CC(C)CN(CCCN1CC[C@@](C)(c2cccc(O)c2)[C@@H](C)C1)C(=O)CCCC(=O)O (relative stereo) [Example 29, monohydrate] ), measured ED50 is 7.6

====

target: opioid receptor (Mus musculus, UniProt P42866); construct: Five CF-1 male mice (Charles River, Portage, MI); from tissue; host or cells: living CF-1 male mice (whole animal, endogenous receptor); assay: in vivo; parameters: species or system CF-1 male mice; conditions: sc; mouse writhing test; […]; s.c. 20 min before acetic acid; read-out: AD50 (the source's name)
Where a name gives a salt, the structure may show the parent alone.
In this section we review reported ED50 values for a set of compounds.
Expressed in mg/kg, but write only the number.

Worked examples, 4 compounds total:
compound: COC(=O)[C@H](Cc1ccccc1)NC(=O)CCC(=O)N(CCN1CCC(C)(c2cccc(O)c2)C(C)C1)C1CCCCC1 (stereo partly drawn) [Example 41]
unitsText: mg/kg
ED50: 32
--
compound: CCOC(=O)CCCC(=O)N(CCN1CC[C@@](C)(c2cccc(O)c2)[C@@H](C)C1)C1CCCCC1 (relative stereo) [Example 32, monohydrochloride]
unitsText: mg/kg
ED50: 9.4
--
compound: C[C@H]1CN(CCN(CC2CCCCC2)C(=O)CCC(=O)O)CC[C@@]1(C)c1cccc(O)c1 (relative stereo) [Example 26, monohydrate]
unitsText: mg/kg
ED50: 3.6
--
compound: CC(C)OC(=O)CCC(=O)N(CCN1CC[C@@](C)(c2cccc(O)c2)[C@@H](C)C1)C1CCCCC1 (relative stereo) [Example 30]
unitsText: mg/kg
ED50: 12.4

Could you now consider this next compound?
# ED50 of C[C@H]1CN(CCN(C(=O)CCC(=O)O)c2ccccc2)CC[C@@]1(C)c1cccc(O)c1 (relative stereo) [Example 19, monohydrate] = 6.3

====

target: opioid receptor (Mus musculus, UniProt P42866); construct: Five CF-1 male mice (Charles River, Portage, MI); from tissue; host or cells: living CF-1 male mice (whole animal, endogenous receptor); experiment: in vivo; design: species or system CF-1 male mice; conditions: sc; mouse writhing test; dose of antagonist that reduced inhibition of writhing by 1.25 mg/kg morphine sulfate to 50%; s.c. 20 min before acetic acid; read-out: AD50 (the source's name)
Structures can show the parent of a compound that is named as a salt.
readoutType: ED50

Worked set:
molecule: C[C@H]1CN(CCN(C(=O)CCC(N)=O)C2CCCCC2)CC[C@@]1(C)c1cccc(O)c1 (relative stereo) [Example 35, monohydrochloride]
ED50: > 1.25 mg/kg
--
molecule: C[C@H]1CN(CCN(C(=O)CCCC(=O)O)C2CCCCC2)CC[C@@]1(C)c1cccc(O)c1 (relative stereo) [Example 23, monohydrate]
ED50: > 1.25 mg/kg
--
molecule: C[C@H]1CN(CCN(C(=O)CCC(=O)O)C2CCCCC2)CC[C@@]1(C)c1cccc(O)c1 (relative stereo) [Example 22, monohydrate]
ED50: 1.25 mg/kg
--
molecule: CC(C)C(=O)NCCCC(=O)NC(CCCNC(=N)N[N+](=O)[O-])C(=O)NC(CCN1CC[C@@](C)(c2cccc(O)c2)[C@@H](C)C1)c1ccccc1 (single isomer, unassigned; (-)) [Example 9]
ED50: > 1.25 mg/kg
--
molecule: C[C@H]1CN(CCC(NC(=O)C(CCCNC(=N)N[N+](=O)[O-])NC(=O)CCCC(=O)NCc2ccccc2)c2ccccc2)CC[C@@]1(C)c1cccc(O)c1 (single isomer, unassigned; (-)) [Example 8]
ED50: > 1.25 mg/kg

Recorded result, CC(C)CCN(CCN1CC[C@@](C)(c2cccc(O)c2)[C@@H](C)C1)C(=O)CCC(=O)O (relative stereo) [Example 28, monohydrate] , ED50: > 1.25 mg/kg

====

biological target: mu receptor (Rattus norvegicus); construct: The brain tissue, rat whole brain minus cerebellum for mu was homogenized; from tissue; host or cells: brain minus cerebellum of male Sprague Dawley rats, homogenate fraction; experiment: Naloxone [3H] opioid receptor binding assay (mu receptor); parameters: species or system rat (male Sprague Dawley); details: 20 min, pH 7.4; 10 nM test compound; [3H]naloxone 0.5 nM; mu receptor; read-out: % displacement at 10 nM
// classify(record): look up inhibition at 0.01 µM in ranges low: < 40%; intermediate: ≥ 40% and < 60%; high: ≥ 60%

molecule: C[C@@H]1CN(C[C@@H](Cc2ccccc2)NC(=O)CC(=O)O)CC[C@]1(C)c1cccc(O)c1 [Example 13, monohydrate]
assignedCategory: low

query: Returns: class label. Input: C[C@H]1CN(CCN(C(=O)CC(=O)O)C2CCCCC2)CC[C@@]1(C)c1cccc(O)c1 (relative stereo) [Example 21, monohydrate]
result: intermediate

====

Readings of Ki for the listed compounds
target: mu receptor (Rattus norvegicus); construct: The brain tissue, rat whole brain minus cerebellum for mu was homogenized; from tissue; host or cells: brain minus cerebellum of male Sprague Dawley rats, homogenate fraction; assay: Naloxone [3H] opioid receptor binding assay (mu receptor); parameters: species or system rat (male Sprague Dawley); conditions: […]; rat whole brain minus cerebellum; [3H]naloxone 0.5 nM; pH 7.4, 37° C., 20 min; read-out: Ki
Counter-ions that a name gives are not always drawn.
Kindly answer with a numeric value in nM, unit omitted.

Entry C[C@H]1CN(CCC(NC(=O)C(CCCNC(=N)N[N+](=O)[O-])NC(=O)CCCC(=O)NCc2ccccc2)c2ccccc2)CC[C@@]1(C)c1cccc(O)c1 (single isomer, unassigned; (-)) : Ki on mu receptor (Rattus norvegicus) = 0.68

Form field, Ki with mu receptor (Rattus norvegicus), item C[C@H]1CN(CCN(C(=O)CCC(N)=O)C2CCCCC2)CC[C@@]1(C)c1cccc(O)c1 (relative stereo) [Example 35, monohydrochloride] : 2.15

Entry C[C@H]1CN(CCN(CC2CCCCC2)C(=O)CCC(=O)O)CC[C@@]1(C)c1cccc(O)c1 (relative stereo) [Example 26, monohydrate] : Ki on mu receptor (Rattus norvegicus) = 1.91

====

Form field: inhibition at 0.01 µM (one value per entry).
target: mu receptor (Rattus norvegicus, UniProt P33535); construct: The brain tissue, rat whole brain minus cerebellum for mu was homogenized; from tissue; host or cells: brain minus cerebellum of male Sprague Dawley rats, homogenate fraction; assay: Naloxone [3H] opioid receptor binding assay (mu receptor); set-up: species or system rat (male Sprague Dawley); conditions: 20 min, pH 7.4; 10 nM test compound; [3H]naloxone 0.5 nM; mu receptor; read-out: % displacement at 10 nM
Sequence (P33535 whole entry): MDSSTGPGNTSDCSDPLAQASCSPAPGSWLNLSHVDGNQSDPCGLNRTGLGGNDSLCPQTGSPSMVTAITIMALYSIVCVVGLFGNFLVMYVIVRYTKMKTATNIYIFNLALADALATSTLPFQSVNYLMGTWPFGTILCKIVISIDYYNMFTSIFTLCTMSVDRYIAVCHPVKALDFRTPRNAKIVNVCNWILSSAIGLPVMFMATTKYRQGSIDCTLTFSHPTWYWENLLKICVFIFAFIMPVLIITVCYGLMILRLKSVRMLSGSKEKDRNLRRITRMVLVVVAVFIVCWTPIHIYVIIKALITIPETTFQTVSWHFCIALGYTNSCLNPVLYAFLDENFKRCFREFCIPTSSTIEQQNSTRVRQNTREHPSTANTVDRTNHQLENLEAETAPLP
Answer with a number only, understood to be in %.

Check out these entries, answers already filled in.
molecule: C[C@H]1CN(C[C@@H](Cc2ccccc2)NC(=O)CC(=O)O)CC[C@@]1(C)c1cccc(O)c1
inhibition at 0.01 µM [%]: 36
//
molecule: CC(=O)OC(C)OC(=O)CCCC(=O)N[C@@H](CC1CCCCC1)CN1CC[C@@](C)(c2cccc(O)c2)[C@@H](C)C1 (stereo partly drawn)
inhibition at 0.01 µM [%]: 73
//
molecule: CC(C)COC(=O)CCCC(=O)N[C@H](CC1CCCCC1)CN1CC[C@@](C)(c2cccc(O)c2)[C@@H](C)C1
inhibition at 0.01 µM [%]: 6

Please fill in: inhibition at 0.01 µM reported for CC(C)CN(CCCN1CC[C@@](C)(c2cccc(O)c2)[C@@H](C)C1)C(=O)CCCC(=O)O (relative stereo) [Example 29, monohydrate] = 56

// inhibition at 0.01 µM value for CC(=O)NC(CCCNC(=N)N[N+](=O)[O-])C(=O)NCCN1CCC(C)(c2cccc(O)c2)C(C)C1 (stereo not drawn) [Example 42, monohydrate] : 44

Short answer for C[C@H]1CN(CCN(C(=O)CCC(=O)O)C2CCCC2)CC[C@@]1(C)c1cccc(O)c1 (relative stereo) [Example 24, hemihydrate] : inhibition at 0.01 µM was 48

// COC1CCC(OC(=O)CCCC(=O)N[C@@H](CC2CCCCC2)CN2CC[C@](C)(c3cccc(O)c3)[C@H](C)C2)CC1 (stereo partly drawn) : inhibition at 0.01 µM value = 37

The measured inhibition at 0.01 µM associated with `CCCCCCCOC(=O)CCCC(=O)N[C@@H](CC1CCCCC1)CN1CC[C@@](C)(c2cccc(O)c2)[C@@H](C)C1` reads 0

Entry CC(C)CCN(CCN1CC[C@@](C)(c2cccc(O)c2)[C@@H](C)C1)C(=O)CCC(=O)O (relative stereo) [Example 28, monohydrate] — recorded inhibition at 0.01 µM = 67
